Tested on: ECU
Experimental Protocol: qHTS profiling for inhibitors of Plasmodium falciparum proliferation (AID 504749); further: nearly all actives have a fitted effect of over 60% in size
Measurement Parameters: P. falciparum in erythrocytes, SYBR Green DNA, 72 h; series mostly up to 28.7 µM
Results filed as inconclusive are left out. Activity calls are given as the source filed them. The call rests on the fitted dose curve; in most records, active means well fitted inhibition curve with a large enough effect; inconclusive means small, poorly fitted or top-dose-only effect; inactive means flat fitted curve, though single readings scatter.
// one of Y = active, N = inactive, no free text

Answered cases to consult:
>>> label("CNC[C@H](O)c1ccc(O)cc1")
"N"
>>> label("CCCC[N+]1(C)C2CC(OC(=O)C(CO)c3ccccc3)CC1C1OC12 (centres undefined)")
"N"
>>> label("[Hg+][c]1ccccc1")
"N"
>>> label("CN[C@@H](C)[C@H]1CC[C@@H](N)[C@@H](O[C@@H]2[C@@H](O)[C@@H](O[C@H]3OC[C@@](C)(O)[C@@H](NC)[C@@H]3O)[C@H](N)C[C@@H]2N)O1 (tested in a mixture with another compound)")
"N"
>>> label("C[N+]1([O-])[C@@H]2CC[C@H]1CC(OC(=O)[C@@H](CO)c1ccccc1)C2 (some centres undefined)")
"N"

Input: For this compound, state the assay outcome: O=C1C=C2C=CC3C[C@@]2(O1)C1CCCCN31 (some centres undefined)
Output: Y

Input: What do you have for C[C@H](N)[C@@H](O)c1ccccc1 ?
Output: N

Input: Follow-up entry: C[C@]12CC[C@H](O)C[C@H]1CCC1C2CC[C@]2(C)[C@@H](c3ccc(=O)oc3)C[C@H]3O[C@]132 (some centres undefined)
Output: N

Input: Field entry: C[C@@]12CC[C@H]3[C@@H](CC[C@@H]4C[C@H]5S[C@H]5C[C@]43C)[C@H]1CC[C@H]2O
Output: N

Source listed as PubChem BioAssay (NCATS).
